Where these numbers come from: the supplement of paper PMC10567573

B1: FAM46C (parent)
chain: VRSRLEEAGIKVHDVRLNGSAAGH

# Variants of: B1
# experimental protocol: protein stability index of a GFP-peptide fusion (GPS, HEK-293T) (PSI 1-6); higher = more stable;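 also: lentivirally expressed fusions sorted by FACS into six bins by GFP to DsRed ratio, PSI derived from sequencing read proportions per bin multiplied by bin number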
# assay setup: c terminus: a fixed tail appended
Quick rule: protein stability index of at least 3 means 1, below that means 0.

| variant annotation | assigned label |
| --- | --- |
| D14M | 0 |

**Query** Form field: protein stability index at least 3? Entry: `R16H`
**Result** 0
